Target: CDK7/CycH/MNAT1 (Homo sapiens, UniProt P50613)
Sequence (P50613 whole entry): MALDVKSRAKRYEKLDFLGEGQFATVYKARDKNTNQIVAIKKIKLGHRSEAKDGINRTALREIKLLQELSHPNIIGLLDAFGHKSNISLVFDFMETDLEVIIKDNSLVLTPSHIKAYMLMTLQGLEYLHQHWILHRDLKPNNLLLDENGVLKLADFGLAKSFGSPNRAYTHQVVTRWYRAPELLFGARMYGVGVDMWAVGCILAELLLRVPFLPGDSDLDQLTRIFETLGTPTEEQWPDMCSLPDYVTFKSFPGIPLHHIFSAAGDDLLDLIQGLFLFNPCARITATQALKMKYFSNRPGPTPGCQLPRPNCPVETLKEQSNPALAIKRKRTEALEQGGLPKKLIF
Sequence (P51946 whole entry partner): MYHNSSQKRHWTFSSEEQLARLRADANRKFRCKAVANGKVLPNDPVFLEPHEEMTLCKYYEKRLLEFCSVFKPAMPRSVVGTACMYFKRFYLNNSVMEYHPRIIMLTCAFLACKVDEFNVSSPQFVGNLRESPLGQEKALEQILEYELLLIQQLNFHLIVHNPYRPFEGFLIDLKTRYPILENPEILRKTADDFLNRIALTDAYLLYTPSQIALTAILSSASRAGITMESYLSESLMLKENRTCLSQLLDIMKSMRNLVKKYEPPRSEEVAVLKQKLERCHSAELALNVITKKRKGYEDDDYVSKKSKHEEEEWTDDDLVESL
Sequence (P51948 whole entry partner): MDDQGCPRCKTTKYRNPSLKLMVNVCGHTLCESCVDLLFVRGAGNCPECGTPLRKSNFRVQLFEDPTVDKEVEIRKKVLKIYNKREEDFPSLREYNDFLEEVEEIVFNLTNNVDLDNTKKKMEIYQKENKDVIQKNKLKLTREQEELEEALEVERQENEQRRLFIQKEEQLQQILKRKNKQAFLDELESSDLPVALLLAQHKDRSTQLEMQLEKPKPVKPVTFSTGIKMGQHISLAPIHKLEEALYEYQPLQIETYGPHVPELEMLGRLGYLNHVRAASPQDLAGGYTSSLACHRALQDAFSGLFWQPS
Experiment: Adapta Eu in vitro kinase assay
Type: biochemical
Readout Kind: IC50
Quick note: number first, unit second.

In plain terms, CC(C)(C)c1cnc(CSc2cnc(NC(=O)C3CCN(CC(=O)NCCOCCOCCOCCNc4cccc5c4C(=O)N(C4CCC(=O)NC4=O)C5=O)CC3)s2)o1 (stereo not shown) [THAL-SNS-032] has a documented IC50 of 398 nM

----------
Molecular target: CDK9/CycT1 (Homo sapiens, UniProt P50750)
Sequence (P50750 whole entry): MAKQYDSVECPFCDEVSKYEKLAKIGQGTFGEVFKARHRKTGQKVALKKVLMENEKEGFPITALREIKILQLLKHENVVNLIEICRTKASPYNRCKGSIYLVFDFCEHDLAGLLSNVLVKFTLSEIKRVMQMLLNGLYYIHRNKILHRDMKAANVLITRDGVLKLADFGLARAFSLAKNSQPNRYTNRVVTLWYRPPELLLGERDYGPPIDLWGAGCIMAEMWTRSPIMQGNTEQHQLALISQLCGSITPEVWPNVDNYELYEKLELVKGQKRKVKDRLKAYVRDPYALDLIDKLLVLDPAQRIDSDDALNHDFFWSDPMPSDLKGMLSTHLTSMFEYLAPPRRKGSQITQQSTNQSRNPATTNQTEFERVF
Sequence (O60563 whole entry partner): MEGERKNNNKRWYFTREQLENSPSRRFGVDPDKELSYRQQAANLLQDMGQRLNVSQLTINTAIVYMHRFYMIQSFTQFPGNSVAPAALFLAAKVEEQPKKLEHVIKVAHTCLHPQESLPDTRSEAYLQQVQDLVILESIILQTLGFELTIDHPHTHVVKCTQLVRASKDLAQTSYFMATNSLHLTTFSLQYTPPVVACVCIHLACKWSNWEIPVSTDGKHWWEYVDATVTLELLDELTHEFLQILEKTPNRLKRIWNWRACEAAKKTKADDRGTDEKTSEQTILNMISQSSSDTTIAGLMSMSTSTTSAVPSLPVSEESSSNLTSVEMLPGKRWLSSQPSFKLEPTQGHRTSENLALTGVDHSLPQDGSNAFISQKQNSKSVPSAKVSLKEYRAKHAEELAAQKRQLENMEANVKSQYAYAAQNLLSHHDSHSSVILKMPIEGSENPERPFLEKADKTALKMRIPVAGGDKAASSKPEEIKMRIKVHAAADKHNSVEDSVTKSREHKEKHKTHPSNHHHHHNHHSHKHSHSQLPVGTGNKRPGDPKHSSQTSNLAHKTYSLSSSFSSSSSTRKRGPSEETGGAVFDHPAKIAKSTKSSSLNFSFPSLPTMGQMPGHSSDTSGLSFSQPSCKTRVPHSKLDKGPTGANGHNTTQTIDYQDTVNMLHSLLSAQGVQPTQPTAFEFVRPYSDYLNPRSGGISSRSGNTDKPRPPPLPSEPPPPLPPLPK
Test: Adapta Eu in vitro kinase assay
Format: biochemical
Readout Kind: IC50 (nM)
// units = nM; emit number, no label

In plain terms, CC(C)(C)c1cnc(CSc2cnc(NC(=O)C3CCN(CC(=O)NCCOCCOCCOCCNc4cccc5c4C(=O)N(C4CCC(=O)NC4=O)C5=O)CC3)s2)o1 (stereo not shown) [THAL-SNS-032] has a documented IC50 of 4

----------
Target: CDK9/CycT1 (Homo sapiens)
Assay: Adapta Eu in vitro kinase assay
Format: biochemical
Conditions: read-out: IC50 CDK9/CycT kinase activity; Km ATP
Readout Kind: IC50

In plain terms, COC[C@@H](C)NC1CCC(Nc2cc(-c3cccc(NCC4(C#N)CCOCC4)n3)c(Cl)cn2)CC1 (stereo partly shown) [NVP-2] has a documented IC50 of < 0.514 nM
